# Procedure Summary: Selectivity ratio of inhibition for PDE3A (M1 to Q1141 residues) (unknown origin) by IMAP assay to inhibition for PDE3B (M1 to E1112 residues) (unknown origin) by IMAP assay
Value Type: Selectivity ratio

Look up and state reported Selectivity ratio for CNC(=O)c1cc(NC(=O)c2cc(OC)c3ccc(OC)cc3n2)cc(B(O)O)c1
> 44

Look up and state reported Selectivity ratio for COC(=O)c1cc(NC(=O)c2cc(OC)c3ccc(OC)cc3n2)cc(B(O)O)c1
> 52

Look up and state reported Selectivity ratio for COCC(C)NC(=O)c1cc(NC(=O)c2cc(OC)c3ccc(OC)cc3n2)cc(B(O)O)c1 (centres undefined)
> 300

Look up and state reported Selectivity ratio for COc1ccc2c(OC)cc(C(=O)Nc3cc(B(O)O)cc(C(N)=O)c3)nc2c1
> 51
